studySystem: PDE4
protocolDescription: In vitro enzyme assay, PDE4 inhibitory activity
testConditions: PDE4 enzyme solution from U937 cells (derived from human monocyte), 3H-cAMP substrate, room temperature, 30 minutes; read-out: IC50 (concentration of 50% inhibition of PDE4 activity)
propertyLabel: IC50 (nM)

{"molecule": "N#CC1(c2ccc(OC(F)F)c(OC3CCCC3)c2)CCN(CC(=O)O)CC1 [compound 1, monohydrate]", "testValue": 42}
